Test system: MMP1 expression by SFs
protocol.details: 'MMP assay': MMP1 expression by 'complex trigger' activated synovial fibroblasts (MMP1 ELISA)
Type: cell-based, human
assay.conditions: Homo sapiens, Fibroblast, RASFs, 48 hrs
pEC50: −log10 of the molar value.
pEC50 values by entry

compound | system.tested | pEC50
O=C(NCc1ccc(O)cc1)c1ccc(Nc2ncc(-c3cn[nH]c3)n3ccnc23)cc1 | MMP1 expression by SFs | 6.30 to 7.00
c1cn2c(-c3cn[nH]n3)cnc(Nc3ccc(N4CCOCC4)cc3)c2n1 | MMP1 expression by SFs | < 6.00
CC(C)N1CCC(c2ccc(Nc3ncc(-c4ccc5c(c4)CNC5=O)n4ccnc34)cc2)CC1 | MMP1 expression by SFs | < 6.00
c1cn2c(-c3c[nH]cn3)cnc(Nc3ccc(N4CCOCC4)cc3)c2n1 | MMP1 expression by SFs | < 6.00
Cc1cnc2c(Nc3ccc(N4CCOCC4)cc3)ncc(-c3cc[nH]c(=O)c3)n12 | MMP1 expression by SFs | < 6.00
CN1CCN(c2ccc(Nc3ncc(-c4ccc(C(=O)O)cc4)n4ccnc34)cc2)CC1 | MMP1 expression by SFs | < 6.00
COc1cccc(Nc2ncc(-c3ccc(C(N)=O)cc3)n3ccnc23)c1 | MMP1 expression by SFs | 6.00 to 6.30
Fc1ccc(Nc2ncc(-c3cn[nH]c3)n3ccnc23)cc1Cl | MMP1 expression by SFs | < 6.00
CCN(CC)CCNC(=O)c1ccc(Nc2ncc(-c3cn[nH]c3)n3ccnc23)cc1F | MMP1 expression by SFs | < 6.00
NS(=O)(=O)c1ccc(Nc2ncc(-c3cn[nH]c3)n3ccnc23)cc1 | MMP1 expression by SFs | < 6.00
O[C@H]1CC[C@H](Nc2ncc(-c3cn[nH]c3)n3ccnc23)CC1 | MMP1 expression by SFs | < 6.00
NC(=O)CN1CCC(c2ccc(Nc3ncc(-c4ccc5c(c4)CNC5=O)n4ccnc34)cc2)CC1 | MMP1 expression by SFs | < 6.00
CCN(CC)CCNC(=O)c1ccc(Nc2ncc(-c3cn[nH]c3)n3ccnc23)cc1OC | MMP1 expression by SFs | < 6.00
COc1cc(Nc2ncc(-c3cn[nH]c3)n3ccnc23)ccc1C(=O)NCc1ccc(C)nc1 | MMP1 expression by SFs | 6.30 to 7.00
CCN(CC)CCNC(=O)c1ccc(Nc2ncc(-c3nc[nH]n3)n3ccnc23)cc1 | MMP1 expression by SFs | < 6.00
O=C1NCc2cc(-c3cnc(Nc4ccc(N5CCOCC5)cc4)c4nccn34)ccc21 | MMP1 expression by SFs | 6.30 to 7.00
CCN(CC)CCNC(=O)c1ccc(Nc2ncc(-c3ccc(C(=O)O)cc3)n3ccnc23)cc1 | MMP1 expression by SFs | < 6.00
c1cncc(Nc2ncc(-c3cn[nH]c3)n3ccnc23)c1 | MMP1 expression by SFs | < 6.00
NS(=O)(=O)c1ccc(-c2cnc(Nc3ccc(N4CCOCC4)cc3)c3nccn23)cc1 | MMP1 expression by SFs | < 6.00
Cc1[nH]ncc1-c1cnc(Nc2ccc(N3CCN(C)CC3)cc2)c2nccn12 | MMP1 expression by SFs | < 6.00
CN1CCN(S(=O)(=O)c2ccc(Nc3ncc(-c4cn[nH]c4)n4ccnc34)cc2)CC1 | MMP1 expression by SFs | < 6.00
c1cn2c(-c3ccc4[nH]ccc4c3)cnc(Nc3ccc(N4CCOCC4)cc3)c2n1 | MMP1 expression by SFs | < 6.00
CC(C)N1CCN(c2ccc(Nc3ncc(-c4ccc5c(c4)C(C)(C)NC5=O)n4ccnc34)cc2)CC1 | MMP1 expression by SFs | < 6.00
O=C(NCCN1CCOCC1)c1ccc(Nc2ncc(-c3cn[nH]c3)n3ccnc23)cc1 | MMP1 expression by SFs | < 6.00
NC(=O)c1cnc(Nc2ccc(N3CCOCC3)cc2)c2nccn12 | MMP1 expression by SFs | < 6.00
CN1CCC(NC(=O)c2ccc(Nc3ncc(-c4cn[nH]c4)n4ccnc34)cc2)C1 (stereo not shown) | MMP1 expression by SFs | < 6.00
CCN(CCO)c1ccc(Nc2ncc(-c3cccc(N)c3)n3ccnc23)cc1 | MMP1 expression by SFs | < 6.00
CS(=O)(=O)c1ccc(Nc2ncc(-c3ccc(C(N)=O)cc3)n3ccnc23)cc1 | MMP1 expression by SFs | < 6.00
NC(=O)c1cc(-c2cnc(Nc3ccc(N4CCOCC4)cc3)c3nccn23)co1 | MMP1 expression by SFs | 6.00 to 6.30
CCc1cnc2c(Nc3ccc(N4CCOCC4)cc3)ncc(-c3ccc(C(N)=O)cc3)n12 | MMP1 expression by SFs | 6.00 to 6.30
NC(=O)c1ccc(-c2cnc(Nc3ccc(-c4cccnc4)cc3)c3nccn23)cc1 | MMP1 expression by SFs | 6.30 to 7.00
NC(=O)c1ccc(-c2cnc(Nc3ccc(N4CCCCC4)cc3)c3nccn23)cc1 | MMP1 expression by SFs | 6.30 to 7.00
O=C1NCc2cc(-c3cnc(Nc4ccc(N5CCOCC5)cn4)c4nccn34)ccc21 | MMP1 expression by SFs | < 6.00
Cc1cc(Nc2ncc(-c3cn[nH]c3)n3ccnc23)ccc1C(N)=O | MMP1 expression by SFs | < 6.00

====

Test system: MMP1 expression by SFs
protocol.details: 'MMP assay': MMP1 expression by 'complex trigger' activated synovial fibroblasts (MMP1 ELISA)
Type: cell-based, human
assay.conditions: Homo sapiens, Fibroblast, RASFs, 48 hrs
EC50 values by entry
property: EC50

structure.notation | endpoint.result
NCc1cccc(CNC(=O)c2ccc(Nc3ncc(-c4cn[nH]c4)n4ccnc34)cc2)c1 | 0.101 to 0.5 µM
CCN(CC)CCNC(=O)c1ccc(Nc2ncc(-c3cncnc3)n3ccnc23)cc1 | > 1 µM
COc1cc(Nc2ncc(-c3cn[nH]c3)n3ccnc23)ccc1C(=O)NCc1ccccc1 | > 1 µM
CN1CCC(COc2ccc(Nc3ncc(-c4ccc(C(N)=O)c(F)c4)n4ccnc34)cc2)CC1 | 0.101 to 0.5 µM
CS(=O)(=O)c1ccc(Nc2ncc(-c3cn[nH]c3)n3ccnc23)cc1 | > 1 µM
NC(=O)c1ccc(Nc2ncc(-c3cn[nH]c3)n3cc(Br)nc23)cc1 | > 1 µM
CCN(CC)CCNC(=O)c1ccc(Nc2ncc(-c3ccnn3C)n3ccnc23)cc1 | > 1 µM
CN1CCN(c2ccc(Nc3ncc(-c4ccnc(F)c4)n4ccnc34)cc2)CC1 | > 1 µM
CN1CCN(c2ccc(Nc3ncc(-c4cc[nH]c(=O)c4)n4ccnc34)cc2)CC1 | > 1 µM
CCN(CC)CCNC(=O)c1ccc(Nc2ncc(-c3nn[nH]n3)n3ccnc23)cc1 | > 1 µM
CN(C)Cc1cc(Nc2ncc(-c3cn[nH]c3)n3ccnc23)ccc1N1CCOCC1 | > 1 µM
NC(=O)c1ccc(-c2cnc(Nc3ccc(C(=O)NCCO)cc3)c3nccn23)cc1 | > 1 µM
Cc1nc(-c2cnc(Nc3ccc(N4CCOCC4)cc3)c3nccn23)n[nH]1 | > 1 µM
Cn1nnc(-c2ccc(Nc3ncc(-c4ccc(C(N)=O)cc4)n4ccnc34)cc2)n1 | 0.101 to 0.5 µM
CC(=O)Nc1ccc(Nc2ncc(-c3cn[nH]c3)n3ccnc23)cc1 | > 1 µM
O=C(NCCO)c1ccc(Nc2ncc(-c3cn[nH]c3)n3ccnc23)cc1 | > 1 µM
NC(=O)c1nc(-c2cnc(Nc3ccc(N4CCOCC4)cc3)c3nccn23)cs1 | > 1 µM
CCN(CCO)c1ccc(Nc2ncc(-c3ccc(O)cc3)n3ccnc23)cc1 | 0.101 to 0.5 µM
NC(=O)c1cnc(-c2cnc(Nc3ccc(N4CCOCC4)cc3)c3nccn23)s1 | > 1 µM
c1cn2c(-c3cn[nH]c3)cnc(Nc3ccc(N4CCOCC4)cc3)c2n1 | > 1 µM
c1cn(-c2ccc(Nc3ncc(-c4cn[nH]c4)n4ccnc34)cc2)cn1 | > 1 µM
O=C(NCc1cccnc1)c1ccc(Nc2ncc(-c3cn[nH]c3)n3ccnc23)cc1 | > 1 µM
CN1CCN(c2ccc(Nc3ncc(-c4ccc(C(N)=O)cc4)n4ccnc34)cc2Cl)CC1 | > 1 µM
NC(=O)c1ccc(-c2cnc(Nc3ccc(C(=O)NCc4cccnc4)cc3)c3nccn23)cc1 | > 1 µM
CCN(CC)CCNC(=O)c1ccc(Nc2ncc(-c3cn[nH]c3)n3ccnc23)cc1 | > 1 µM
CN1CCN(c2ccc(Nc3ncc(-c4ccc(C(N)=O)cc4)n4ccnc34)cc2)CC1 | 0.501 to 1 µM

====

system.tested: MAPKAPK5 (Homo sapiens, UniProt Q8IW41)
Sequence (Q8IW41 whole entry): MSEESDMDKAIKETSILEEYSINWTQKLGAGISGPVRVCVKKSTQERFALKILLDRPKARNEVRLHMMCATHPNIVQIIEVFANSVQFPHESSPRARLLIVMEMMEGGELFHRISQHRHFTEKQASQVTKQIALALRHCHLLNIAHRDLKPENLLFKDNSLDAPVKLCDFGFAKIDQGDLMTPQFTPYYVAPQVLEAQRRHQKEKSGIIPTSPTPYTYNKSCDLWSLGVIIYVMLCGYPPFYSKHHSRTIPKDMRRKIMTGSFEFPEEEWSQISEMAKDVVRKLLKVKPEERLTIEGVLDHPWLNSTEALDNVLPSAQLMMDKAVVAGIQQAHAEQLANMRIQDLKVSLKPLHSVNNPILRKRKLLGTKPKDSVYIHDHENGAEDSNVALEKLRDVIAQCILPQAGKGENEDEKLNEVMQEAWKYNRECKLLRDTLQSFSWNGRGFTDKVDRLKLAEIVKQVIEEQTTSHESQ
pIC50: −log10 of the molar value.

structure.notation | pIC50
c1cn2c(-c3cn[nH]c3)cnc(Nc3ccc(OCCN4CCOCC4)cc3)c2n1 | 6.00 to 6.30
c1cn2c(-c3cn[nH]c3)cnc(Nc3ccc4[nH]ccc4c3)c2n1 | 6.00 to 6.30
c1cn2c(-c3ccc4[nH]ccc4c3)cnc(Nc3ccc(N4CCOCC4)cc3)c2n1 | < 6.00
c1cn2c(-c3nn[nH]n3)cnc(Nc3ccc(N4CCOCC4)cc3)c2n1 | < 6.00
O=C(O)c1ccc(Nc2ncc(-c3cn[nH]c3)n3ccnc23)cc1 | < 6.00
NC(=O)c1ccc(Nc2ncc(-c3cn[nH]c3)n3cc(Br)nc23)cc1 | < 6.00
CN1CCN(c2ccc(Nc3ncc(-c4ccc(C(N)=O)c(Cl)c4)n4ccnc34)cc2)CC1 | < 6.00
FC(F)(F)CN1CCC(c2ccc(Nc3ncc(-c4cn[nH]c4)n4ccnc34)cc2)CC1 | < 6.00
Cc1n[nH]cc1-c1cnc(Nc2ccc(C3CCN(CC(N)=O)CC3)cc2)c2nccn12 | 6.00 to 6.30
C[C@@H]1CN(c2ccc(Nc3ncc(-c4cc(C(N)=O)co4)n4ccnc34)cc2)[C@@H](C)CN1C | 7.00 to 9.00
CC(C)N1CCN(c2ccc(Nc3ncc(-c4cc(F)c(C(N)=O)c(F)c4)n4ccnc34)cc2)CC1 | 6.00 to 6.30
O=C1NCc2cc(-c3cnc(Nc4cccnc4)c4nccn34)ccc21 | 6.30 to 7.00
CCN(CC)CCNC(=O)c1ccc(Nc2ncc(-c3cn[nH]n3)n3ccnc23)cc1 | 6.00 to 6.30
CN1CCN(c2ccc(Nc3ncc(-c4ccnc(N)c4)n4ccnc34)cc2)CC1 | < 6.00
Nc1ccc(Nc2ncc(-c3cn[nH]c3)n3ccnc23)cc1 | < 6.00
O=C(Nc1ccccc1)c1ccc(Nc2ncc(-c3cn[nH]c3)n3ccnc23)cc1 | < 6.00
CN1CCN(c2ccc(Nc3ncc(-c4ccc(C(=O)O)cc4)n4ccnc34)cc2)CC1 | < 6.00
COc1cc(Nc2ncc(-c3csc(C(N)=O)c3)n3ccnc23)ccc1C(=O)NCc1ccccc1 | < 6.00
NC(=O)c1ccc(-c2cnc(Nc3ccc(OCc4cccnc4)cc3)c3nccn23)cc1F | < 6.00
CCN(CC)CCNC(=O)c1ccc(Nc2ncc(-c3ccoc3)n3ccnc23)cc1 | < 6.00
CN(C)c1ccc(CNC(=O)c2ccc(Nc3ncc(-c4cn[nH]c4)n4ccnc34)cc2)cc1 | < 6.00
NC(=O)c1nc(-c2cnc(Nc3ccc(N4CCOCC4)cc3)c3nccn23)cs1 | < 6.00
CCN(CC)CCNC(=O)c1ccc(Nc2ncc(-c3ccc(-c4nn[nH]n4)cc3)n3ccnc23)cc1 | < 6.00
CCN(CCO)c1ccc(Nc2ncc(-c3ccc(N)cc3)n3ccnc23)cc1 | < 6.00
